Positions of bridges follow the written chain, without caps; N, C: chain ends. Non-standard residues stand in square brackets, D forms with d. Residues, ends and D or L forms follow the SMILES beside them. *: point of attachment. Nonanoyl = CCCCCCCCC(=O)*; Octanoyl = CCCCCCCC(=O)*; Dab = NCC[C@H](N)C(=O)O; Dap = NC[C@H](N)C(=O)O
Here's a batch of molecules along with measured Minimum inhibitory concentration, Ec FADDI-EC001 for Enterobacter cloacae.
measurement.kind: Minimum inhibitory concentration, Ec FADDI-EC001 (µg/mL)

| molecule | assayed.target | quantitative.result |
| --- | --- | --- |
| CCCCCCCC(=O)N[C@@H](CN)C(=O)N[C@H](C(=O)N[C@@H](CN)C(=O)N[C@H]1CCNC(=O)[C@H]([C@@H](C)O)NC(=O)[C@H](CCN)NC(=O)[C@H](CCN)NC(=O)[C@H]([C@@H](C)O)NC(=O)[C@@H](CC(C)C)NC(=O)[C@H](CCN)NC1=O)[C@@H](C)O [Compound 48] (Octanoyl-[Dap]T[Dap][Dab][Dab][dL]T[Dab][Dab]T; lactam 4-C) | Enterobacter cloacae | 0.25 |
| CCCCCCCCC(=O)N[C@@H](CCN)C(=O)N[C@H](C(=O)N[C@@H](CN)C(=O)N[C@H]1CCNC(=O)[C@H]([C@@H](C)O)NC(=O)[C@H](CCN)NC(=O)[C@H](CCN)NC(=O)[C@H](C)NC(=O)[C@@H](CC(C)C)NC(=O)[C@H](CCN)NC1=O)[C@@H](C)O [Compound 132] (Nonanoyl-[Dab]T[Dap][Dab][Dab][dL]A[Dab][Dab]T; lactam 4-C) | Enterobacter cloacae | 0.25 |
